The following binders are shown together with reported pKd values.
- System Name: T1, Mcl-1, Q07820
- T1 chain: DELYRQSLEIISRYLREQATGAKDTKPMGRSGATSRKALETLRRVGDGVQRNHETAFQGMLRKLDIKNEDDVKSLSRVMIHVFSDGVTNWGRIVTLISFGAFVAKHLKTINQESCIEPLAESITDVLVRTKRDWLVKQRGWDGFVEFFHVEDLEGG
- Assay Info: fluorescence polarisation, direct titration of receptor into 10 nM labelled peptide
pKd: −log10 of the molar value.

Some binders with recorded pKd:
{"Binder": "FVGYNSTGAELRHWSDMLANPRRPIA [SYT1]", "Value": "< 5.40"}
{"Binder": "TRELQELARKLQELADASENLLTENT [TXNDC11]", "Value": 5.62}
{"Binder": "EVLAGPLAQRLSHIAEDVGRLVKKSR [ARHGAP4]", "Value": "< 5.61"}
{"Binder": "RYPILENPEILRKTADDFLNRIALTD [CCNH]", "Value": "< 5.40"}

Fill in: pKd of ISSYMVLAPVFGYLGDRYNRKYLMCG [SPNS1] is ___
7.72

Fill in: pKd of KSRLVQQSKALKELADELQERCQRPA [TRIM58] is ___
< 5.22

Fill in: pKd of SSLSDGLPVHLANIADELTQKKKMFK [AGBL2] is ___
< 5.30

Fill in: pKd of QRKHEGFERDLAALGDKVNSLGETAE [SPTAN1] is ___
5.41

Fill in: pKd of LRGSGAWGLLLRRVGDDVLVHLLARC [TERT] is ___
7.16

Fill in: pKd of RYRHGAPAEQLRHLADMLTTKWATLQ [PLEKHH1] is ___
6.01

Fill in: pKd of LMARPAVALHFQSIADGFKEAVRYVL [SOS2] is ___
< 5.40

Fill in: pKd of RVCPYYLSRNLKQQADIIFMPYNYLL [RTEL1] is ___
< 5.40

Fill in: pKd of TVATRRLSGFLRTLADRLEGTKELLS [MINA] is ___
< 5.00

Fill in: pKd of LCQLSCVSKLMRDVCGSLLQSRGMVI [FBXO30] is ___
< 5.00
